- run.description: collision cross section in nitrogen (drift tube, single-field); higher = larger gas-phase ion size;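 note: chemical standards at 10 µM analysed by drift tube IMS-QTOF MS in about 3.95 torr nitrogen, mean of duplicate injections differing ≤1%, mass error below 10 ppm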
- recorded.conditions: ion type: [M+H]; ion source: ESI; ion mode: Positive
endpoint.name: collision cross section in nitrogen (Å²)
The figure you give is taken to be in Å²; do not add the unit.

Worked cases, answers included:
compound	measure.unit	collision cross section in nitrogen
Nc1cccnc1N [2,3-Diaminopyridine]	Å²	118.5
Clc1ccc(C2(Cn3cncn3)CC(Br)CO2)c(Cl)c1 (stereo not given) [Bromuconazole]	Å²	172.6

Req: Return reported collision cross section in nitrogen; argument: C=CCO/N=C(\CCC)C1C(=O)CC(C)(C)C(C(=O)OC)C1=O (stereo not given) [Alloxydim sodium]
Resp: 175.7

Req: Can you look up the measured collision cross section in nitrogen of CN1C(=O)CC[C@H]1c1cccnc1 [Cotinine] for me?
Resp: 144.8

Req: Consider the compound CC(=O)CC(c1ccccc1)c1c(O)c2ccccc2oc1=O (stereo not given) [Warfarin] and give its measured collision cross section in nitrogen.
Resp: 166.9

Req: Please look up its collision cross section in nitrogen: CCOP(=O)(N=C1SCCS1)OCC [Phosfolan]
Resp: 150.2

Req: Returns the measured collision cross section in nitrogen for the input compound. Input: Nc1ccc(N)c2c1C(=O)c1ccccc1C2=O [1,4-Diaminoanthraquinone]
Resp: 151.5

Req: Give the measured collision cross section in nitrogen of Nc1ccc(N=Nc2ccccc2)cc1 [C.I. Solvent Yellow 1] .
Resp: 146.9

Req: Which collision cross section in nitrogen is reported for this compound? OCCN(CCO)c1ccccc1 [N-Phenyl diethanolamine]
Resp: 137.9

Req: Look up collision cross section in nitrogen for this compound: CC(Cc1ccc(OCC(=O)O)cc1)NCC(O)c1csc(C(F)(F)F)n1 (stereo not given)
Resp: 181.4

###

- run.description: collision cross section in nitrogen (drift tube, single-field); higher = larger gas-phase ion size
- recorded.conditions: ion type: [M-H]; ion source: ESI; ion mode: Negative
Where a name gives a salt, the structure may show the parent alone.
Assign class by collision cross section in nitrogen: not lower than 200 Å² means 1 (yes); lower than 200 Å² means 0 (no).

compound	discrete.label
CCOP(=O)(NC(C)C)Oc1ccc(SC)c(C)c1 (stereo not drawn) [Fenamiphos]	0 (no)
CC1=NN(c2ccc(C(=O)O)cc2)C(=O)C1 [4-(3-Methyl-5-oxo-4,5-dihydro-1H-pyrazol-1-yl)benzoic acid]	0 (no)

Req: # bool: collision cross section in nitrogen of COc1cc([C@@H]2c3cc4c(cc3[C@@H](O[C@@H]3O[C@@H]5CO[C@@H](C)O[C@H]5[C@H](O)[C@H]3O)[C@H]3COC(=O)[C@H]23)OCO4)cc(OC)c1O [Etoposide] >= 200 Å²
Resp: 1 (yes)

Req: Does C=CCO/N=C(\CCC)C1C(=O)CC(C)(C)C(C(=O)OC)C1=O (stereo not drawn) [Alloxydim sodium] have a reported collision cross section in nitrogen of at least 200 Å²?
Resp: 0 (no)

Req: Evaluate COP(=O)(NC(C)=O)SC (stereo not drawn) [Acephate] : collision cross section in nitrogen at minimum 200 Å²?
Resp: 0 (no)

Req: Textbook exercise: given the entry CCCCCCCCCOS(=O)(=O)O [Sodium nonyl sulfate] , state whether its collision cross section in nitrogen is greater than or equal to 200 Å².
Resp: 0 (no)

Req: Test whether the compound O=C(Nc1ccccc1)c1cc([N+](=O)[O-])ccc1Cl [2-Chloro-5-nitro-N-phenylbenzamide] records collision cross section in nitrogen of 200 Å² or higher.
Resp: 0 (no)

Req: Tell me whether collision cross section in nitrogen is at least 200 Å² here: CCOC(=O)c1ccccc1C(=O)O [Monoethyl phthalate]
Resp: 0 (no)

Req: In plain terms: is recorded collision cross section in nitrogen at least 200 Å² for CC(C)CCCCCCCCCCCCCCC(=O)O [16-Methylheptadecanoic acid] ?
Resp: 0 (no)
